- SUBJECT OF TEST: T1, human GHS-R1a receptor (growth hormone secretagogue receptor 1a) (human, UniProt Q92847 1-366)
- T1 construct: whole, on cells; Functional assays: HEK-293T cells transiently transfected with human GHS-R1a; also called ghrelin receptor
- ASSAY REMARKS: competitive displacement of 125I-ghrelin, membranes of HEK293T cells with transfected human GHS-R1a
Non-standard residues stand in square brackets, D forms with d. No end group written: not given here. *: point of attachment. Palmitoyl = CCCCCCCCCCCCCCCC(=O)*; Myristoyl = CCCCCCCCCCCCCC(=O)*; Decanoyl = CCCCCCCCCC(=O)*; Dap = NC[C@H](N)C(=O)O; Sar = CNCC(=O)O
The following binders are listed with their measured Ki values.
Express your answer in nM, writing the number without its unit.

Worked set:
BINDER | MEASURED VALUE
XSXXLSPEHQKAQQRKESKKPPAKLQPR (sarcosine (Sar) at position 1; diaminopropionic acid N-decanoyl (Dpr-N-dec) at position 3; cyclohexylalanine (Cha) at position 4, Synthetic ghrelin analog) [ghrelin analog no. 5, (Sar)S(Dpr-N-dec)(Cha)LSPEHQKAQQRKESKKPPAKLQPR] | 1.04
XSXXLSPEHQKAQQRKESKKPPAKLQPR (not fully specified; sarcosine (Sar) at position 1; diaminopropionic acid N-octanoyl (Dpr-N-oct) at position 3; naphtylalanine (Nal) at position 4; Lys 24 N-palmitoyl (K(N-palm)), Synthetic ghrelin analog) [ghrelin analog no. 9, (Sar)S(Dpr-N-oct)(Nal)LSPEHQKAQQRKESKKPPAK(N-palm)LQPR] | 23.3
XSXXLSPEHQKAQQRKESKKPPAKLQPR (sarcosine (Sar) at position 1; diaminopropionic acid N-myristoyl (Dpr-N-myr) at position 3; cyclohexylalanine (Cha) at position 4, Synthetic ghrelin analog) [ghrelin analog no. 6, (Sar)S(Dpr-N-myr)(Cha)LSPEHQKAQQRKESKKPPAKLQPR] | 6.41
[Sar]S[Dap](Decanoyl)FLSPEHQKAQQRKES [ghrelin analog no. 17, (Sar)S(Dpr-N-dec)FLSPEHQKAQQRKES] | 3.71
XSXFLSPEHQKAQQRKESKKPPAKLQPR (sarcosine (Sar) at position 1; diaminopropionic acid N-9-decenoyl (Dpr-N-9-decen) at position 3, Synthetic ghrelin analog) [ghrelin analog no. 12, (Sar)S(Dpr-N-9-decen)FLSPEHQKAQQRKESKKPPAKLQPR] | 1.51

*Q* Requested field: Ki. Item: [Sar]S[Dap](Myristoyl)FLSPEHQKAQQRK(Palmitoyl)ES [ghrelin analog no. 16, (Sar)S(Dpr-N-myr)FLSPEHQKAQQRK(N-palm)ES]
*A* 51

*Q* Bench note: what Ki did XSXFLSPEHQKAQQRKESKKPPAKLQPR (sarcosine (Sar) at position 1; diaminopropionic acid N-10-undecynoyl (Dpr-N-10-undecyn) at position 3, Synthetic ghrelin analog) [ghrelin analog no. 11, (Sar)S(Dpr-N-10-undecyn)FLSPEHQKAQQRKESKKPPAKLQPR] show?
*A* 0.83
